System: 293T cells
procedure summary: Cell survival rate assay (CCK-8)
Format: cell-based
test context: difference vs YK-412
# cutoff 20% applies to cell survival rate higher than YK-412; >= gives t, < gives f

| given smiles | label class |
| --- | --- |
| CCCCCCCCC(CCCCCCCC)C(=O)OCCCCCCN(CCO)CCN(CCO)CCCCCCOC(=O)C(CCCCCCCC)CCCCCCCC | f |
| CCCCCCCCC(CCCCCCCC)OC(=O)CCCCCCCN(CCO)CCN(CCO)CCCCCCCC(=O)OC(CCCCCCCC)CCCCCCCC | f |
| CCCCCCCCC(CCCCCCCC)COC(=O)CCCCCN(CCCO)CCCN(CCCO)CCCCCC(=O)OCC(CCCCCCCC)CCCCCCCC | f |
| CCCCCCCCCCCOC(=O)CCCN(CCO)CCN(CCO)CCCCCC(=O)OC(CCCCCCCC)CCCCCCCC | f |
| CCCCCCCCC(CCCCCCCC)COC(=O)CCCCCN(CCCO)CCN(CCCO)CCCCCC(=O)OCC(CCCCCCCC)CCCCCCCC | f |
| CCCCCCCCC(CCCCCCCC)OC(=O)CCCCCN(CCO)CCN(CCO)CCCCCC(=O)OC(CCCCCCCC)CCCCCCCC | t |

----------
# reported average radiation intensity, 48 h; entries follow
Tested on: female BALB/C mice
procedure summary: In vivo imaging in mice of Fluc-mRNA LNP formulations (mRNA expression and duration)
test context: Fluc-mRNA LNP intramuscular, 48 h after administration

| compound | system | average radiation intensity, 48 h |
| --- | --- | --- |
| CCCCCCCCCCOC(=O)CCCCCN(CCO)CCCN(CCO)CCCCCC(=O)OCCC(CCCCCC)CCCCCC [YK-417] | female BALB/C mice | 7045 |
| CCCCCCCCC(CCCCCCCC)OC(=O)CCCCCCCN(CCO)CCCCCCCC(=O)OCCC(CCCCCC)CCCCCC [Compound 21, reference compound] | female BALB/C mice | 31540 |
| CCCCCCCCCCCOC(=O)CCCN(CCO)CCN(CCO)CCCCCC(=O)OC(CCCCCCCC)CCCCCCCC [YK-407] | female BALB/C mice | 885288 |
| CCCCCCCCC(CCCCCCCC)COC(=O)CCCCCN(CCCO)CCN(CCCO)CCCCCC(=O)OCC(CCCCCCCC)CCCCCCCC [YK-422] | female BALB/C mice | 271372 |
| CCCCCCCCC(CCCCCCCC)OC(=O)CCCCCCCN(CCO)CCN(CCO)CCCCCCCC(=O)OC(CCCCCCCC)CCCCCCCC [YK-403] | female BALB/C mice | 308540 |
| CCCCCCCCCCCOC(=O)CCCCCN(CCO)CCCCCCCC(=O)OC(CCCCCCCC)CCCCCCCC [SM-102, reference compound] | female BALB/C mice | 32871 |
| CCCCCCCCC(CCCCCCCC)OC(=O)CCCCCN(CCO)CCN(CCO)CCCCCC(=O)OC(CCCCCCCC)CCCCCCCC [YK-401] | female BALB/C mice | 393020 |
| CCCCCCCCCCOC(=O)CCCCCN(CCO)CCN(CCO)CCCCCC(=O)OCCC(CCCCCC)CCCCCC [YK-411] | female BALB/C mice | 975 |
| CCCCCCCCCCOC(=O)CCCN(CCO)CCCCCC(=O)OCC(CCCCCCCC)CCCCCCCC [YK-009, reference compound] | female BALB/C mice | 100560 |
| CCCCCCCCC(CCCCCCCC)COC(=O)CCCCCN(CCCO)CCCN(CCCO)CCCCCC(=O)OCC(CCCCCCCC)CCCCCCCC [YK-423] | female BALB/C mice | 350120 |
| CCCCCCCCC(CCCCCCCC)C(=O)OCCCCCCN(CCO)CCN(CCO)CCCCCCOC(=O)C(CCCCCCCC)CCCCCCCC [YK-402] | female BALB/C mice | 345740 |
| CCCCCCCCCCCCC(O)CN(C)CCCCCC(=O)OCC(CCCCCC)CCCCCCCC (centres unmarked) [HHMA, reference compound] | female BALB/C mice | 33346 |
| CCCCCCCCCCCOC(=O)CCCN(CCO)CCCN(CCO)CCCCCC(=O)OCC(CCCCCCCC)CCCCCCCC [YK-415] | female BALB/C mice | 15790 |
| CCCCCCCCC(CCCCCC)C(=O)OCCCCCCN(CCCCO)CCCCCCOC(=O)C(CCCCCC)CCCCCCCC (centres unmarked) [ALC-0315, reference compound] | female BALB/C mice | 40125 |

----------
Tested on: 293T cells
procedure summary: Cell survival rate assay (CCK-8)
Assay type: cell-based
test context: difference vs compound 23
experimental readout: cell survival rate higher than compound 23

| compound | system | data value |
| --- | --- | --- |
| CCCCCCCCC(CCCCCCCC)C(=O)OCCCCCCN(CCO)CCN(CCO)CCCCCCOC(=O)C(CCCCCCCC)CCCCCCCC [YK-402] | 293T cells | 3.59% |
| CCCCCCCCC(CCCCCCCC)OC(=O)CCCCCN(CCO)CCN(CCO)CCCCCC(=O)OC(CCCCCCCC)CCCCCCCC [YK-401] | 293T cells | 6.10% |
| CCCCCCCCC(CCCCCCCC)COC(=O)CCCCCN(CCCO)CCCN(CCCO)CCCCCC(=O)OCC(CCCCCCCC)CCCCCCCC [YK-423] | 293T cells | 2.03% |
| CCCCCCCCC(CCCCCCCC)COC(=O)CCCCCN(CCCO)CCN(CCCO)CCCCCC(=O)OCC(CCCCCCCC)CCCCCCCC [YK-422] | 293T cells | 1.37% |
| CCCCCCCCC(CCCCCCCC)OC(=O)CCCCCCCN(CCO)CCN(CCO)CCCCCCCC(=O)OC(CCCCCCCC)CCCCCCCC [YK-403] | 293T cells | 1.65% |
| CCCCCCCCCCCOC(=O)CCCN(CCO)CCN(CCO)CCCCCC(=O)OC(CCCCCCCC)CCCCCCCC [YK-407] | 293T cells | 2.26% |

----------
Test system: 293T cells
procedure summary: Cell survival rate assay (CCK-8)
Assay type: cell-based
test context: difference vs YK-415
# reported cell survival rate higher than YK-415; entries follow

| given smiles | cell survival rate higher than YK-415 |
| --- | --- |
| CCCCCCCCC(CCCCCCCC)OC(=O)CCCCCCCN(CCO)CCN(CCO)CCCCCCCC(=O)OC(CCCCCCCC)CCCCCCCC | 9.60% |
| CCCCCCCCCCCOC(=O)CCCN(CCO)CCN(CCO)CCCCCC(=O)OC(CCCCCCCC)CCCCCCCC | 10.21% |
| CCCCCCCCC(CCCCCCCC)OC(=O)CCCCCN(CCO)CCN(CCO)CCCCCC(=O)OC(CCCCCCCC)CCCCCCCC | 14.05% |
| CCCCCCCCC(CCCCCCCC)COC(=O)CCCCCN(CCCO)CCCN(CCCO)CCCCCC(=O)OCC(CCCCCCCC)CCCCCCCC | 9.98% |
| CCCCCCCCC(CCCCCCCC)COC(=O)CCCCCN(CCCO)CCN(CCCO)CCCCCC(=O)OCC(CCCCCCCC)CCCCCCCC | 9.32% |
| CCCCCCCCC(CCCCCCCC)C(=O)OCCCCCCN(CCO)CCN(CCO)CCCCCCOC(=O)C(CCCCCCCC)CCCCCCCC | 11.54% |

----------
Tested on: 293T cells
procedure summary: Fluorescent detection of Fluc-mRNA (cell transfection efficiency of LNP formulations)
Assay type: cell-based
test context: ratio vs YK-415
experimental readout: cell transfection efficiency, times that of YK-415

| compound | data value |
| --- | --- |
| CCCCCCCCC(CCCCCCCC)C(=O)OCCCCCCN(CCO)CCN(CCO)CCCCCCOC(=O)C(CCCCCCCC)CCCCCCCC [YK-402] | 16.93 |
| CCCCCCCCC(CCCCCCCC)COC(=O)CCCCCN(CCCO)CCN(CCCO)CCCCCC(=O)OCC(CCCCCCCC)CCCCCCCC [YK-422] | 21.59 |
| CCCCCCCCCCCOC(=O)CCCN(CCO)CCN(CCO)CCCCCC(=O)OC(CCCCCCCC)CCCCCCCC [YK-407] | 68.40 |
| CCCCCCCCC(CCCCCCCC)COC(=O)CCCCCN(CCCO)CCCN(CCCO)CCCCCC(=O)OCC(CCCCCCCC)CCCCCCCC [YK-423] | 20.89 |
| CCCCCCCCC(CCCCCCCC)OC(=O)CCCCCN(CCO)CCN(CCO)CCCCCC(=O)OC(CCCCCCCC)CCCCCCCC [YK-401] | 18.82 |
| CCCCCCCCC(CCCCCCCC)OC(=O)CCCCCCCN(CCO)CCN(CCO)CCCCCCCC(=O)OC(CCCCCCCC)CCCCCCCC [YK-403] | 17.61 |
